Data credit: patent US10532054B2

Structures can show the parent of a compound that is named as a salt.
measured parameter: melting point

The value of melting point measured for the compound COc1cc(OC)c2c(=O)[nH]c(-c3cc(C)c(OCCO)c(C)c3)nc2n1 [Example 70] turned out to be 255 to 256 °C

The recorded melting point for COc1cc(OC)c2c(=O)[nH]c(-c3cc(C)c(OCCN4CCN(C)CC4)c(C)c3)cc2c1 (as salt: hydrochloride) [Example 23] is 195 to 198 °C

The compound listed as COc1cc2cc(-c3cc(C)c(O)c(C)c3)n(C)c(=O)c2c(OC)c1C [Example 17] shows melting point equal to 246 to 248 °C

In plain terms, COc1cc(OC)c2c(=O)[nH]c(-c3cc(C)c(NC(=O)CO)c(C)c3)nc2c1 [Example 60] has a documented melting point of 190 to 192 °C

So for CN(C)c1ccc(-c2nc3ccccc3c(=O)[nH]2)c2ccccc12 [Example 40] , the logged melting point turned out to be 224 to 226 °C

Entry Cc1cc(-c2nc3cc(Cl)cc(Cl)c3c(=O)[nH]2)cc(C)c1OCCO [Example 80] ; melting point = 260.8 to 262.6 °C

Lab book: melting point of COc1cc(OC)c2cnc(-c3cc(C)c(OCCO)c(C)c3)nc2c1 [Example 76] noted as 169 to 170 °C

For reference, reported melting point for COc1cc(OC)c2c(=O)n(C)c(-c3cc(C)c(O)c(C)c3)cc2c1 [Example 7] stands at 253 to 254 °C

Form field melting point, entry COc1cc2nc(-c3cc(C)c(O)c(C)c3)[nH]c(=O)c2cc1OC [Example 52] : > 300 °C

Consider O=c1[nH]c(-c2ccc(O)cc2)cc2ccccc12 [Example 1, 3-(4-Hydroxyphenyl)-2H-isoquinolin-1-one] . Its measured melting point is 239 to 241 °C

Measured melting point of COc1cc(OC)c2c(=O)[nH]c(-c3cc(C)c(OCCO)c(C)c3)cc2n1 [Example 61] : 224.9 to 225.4 °C

Record summary for COc1cc(OC)c2c(=O)[nH]c(-c3ccc(OC)c(CN4CCOCC4)c3)nc2c1 [Example 69] : reported melting point = 282.7 to 284.5 °C

// melting point lookup, compound = CC(=O)Nc1ccc2nc(-c3cc(C)c(OCCO)c(C)c3)[nH]c(=O)c2c1 [Example 73] , result: > 300 °C

Documented melting point of COc1cc2nc(-c3ccc4c(c3)OCCO4)[nH]c(=O)c2cc1OC [Example 48] : 316.4 to 318.2 °C

// sample COc1cc2c(c(OC)c1)S(=O)(=O)NC(c1cc(C)c(O)c(C)c1)=C2 [Example 15] , its melting point was 246.6 to 247.4 °C

So for COc1cc(OC)c2c(=O)[nH]c(-c3ccc(OCC(N)=O)cc3)nc2c1 [Example 38] , the logged melting point turned out to be 309 to 311 °C

Sample Oc1ccc(-c2cc3ccccc3cn2)cc1 [Example 2, 4-lsoquinolin-3-yl-phenol] ; melting point observed: 218 to 219 °C
